- assay_method_text: Experimental example 6: pharmacokinetics of BT001021 and T-030 in NCI-N87 tumor-bearing mice (T-030 in tumor and serum, LC-MS/MS)
- Assay type: in vivo, Balb/c-nu mice
- study_conditions: Balb/c-nu, mouse, in vivo, iv, 0.23 mg/kg, Tumor, T-030 0.23 mg/kg, single dose, read-out: T1/2 (h) of T-030 (converted)
metric_name: half-life

# structure_smiles_string, metric_name, reading
rows = [
    ("CC[C@@]1(O)C(=O)OCc2c1cc1n(c2=O)Cc2c-1nc1ccccc1c2CCN(C(C)C)S(C)(=O)=O", "half-life", "2.55 h"),
]

* * *

- assay_method_text: Experimental example 6: pharmacokinetics of BT001021 and T-030 in NCI-N87 tumor-bearing mice (T-030 in tumor and serum, LC-MS/MS)
- Assay type: in vivo, Balb/c-nu mice
- study_conditions: Balb/c-nu, mouse, in vivo, iv, 0.23 mg/kg, Tumor, T-030 0.23 mg/kg, single dose, read-out: AUClast (h*ng/ml) of T-030
- Protocol: Experimental example 6 was used to evaluate pharmacokinetics of antibody drug conjugates and bioactive molecules in vivo. Specifically, in the experiment, a tumor-bearing mice model was constructed by subcutaneous xenograft of a human gastric cancer cell line NCI-N87 to Balb/c-nu mice. […] The concentration of the T-030 in tumor tissues and serum was determined to evaluate the pharmacokinetics in vivo of the antibody conjugate BT001021 and the bioactive molecule T-030 in the tumor-bearing mice. […]
metric_name: AUC(0-t) (ng·h/mL)

# molecule, reading
data = [
    ("CC[C@@]1(O)C(=O)OCc2c1cc1n(c2=O)Cc2c-1nc1ccccc1c2CCN(C(C)C)S(C)(=O)=O [T-030]", 3.85),
]

* * *

- assay_method_text: Experimental example 6: pharmacokinetics of BT001021 and T-030 in NCI-N87 tumor-bearing mice (T-030 in tumor and serum, LC-MS/MS)
- Type: in vivo, Balb/c-nu mice
- study_conditions: Balb/c-nu, mouse, in vivo, iv, 0.23 mg/kg, Tumor, T-030 0.23 mg/kg, single dose, read-out: MRTINF (h) of T-030
- Description: Experimental example 6 was used to evaluate pharmacokinetics of antibody drug conjugates and bioactive molecules in vivo. Specifically, in the experiment, a tumor-bearing mice model was constructed by subcutaneous xenograft of a human gastric cancer cell line NCI-N87 to Balb/c-nu mice. […] The concentration of the T-030 in tumor tissues and serum was determined to evaluate the pharmacokinetics in vivo of the antibody conjugate BT001021 and the bioactive molecule T-030 in the tumor-bearing mice. […]

# compound, unit_tag, MRT inf
measured = [
    ("CC[C@@]1(O)C(=O)OCc2c1cc1n(c2=O)Cc2c-1nc1ccccc1c2CCN(C(C)C)S(C)(=O)=O [T-030]", "h", 1.52),
]

* * *

- assay_method_text: Experimental example 6: pharmacokinetics of BT001021 and T-030 in NCI-N87 tumor-bearing mice (T-030 in tumor and serum, LC-MS/MS)
- Assay type: in vivo, Balb/c-nu mice
- study_conditions: Balb/c-nu, mouse, in vivo, iv, 0.23 mg/kg, Serum, T-030 0.23 mg/kg, single dose, read-out: AUClast (h*ng/ml) of T-030

# compound, AUC(0-t) [ng·h/mL]
data = [
    ("CC[C@@]1(O)C(=O)OCc2c1cc1n(c2=O)Cc2c-1nc1ccccc1c2CCN(C(C)C)S(C)(=O)=O [T-030]", 5.58),
]

FYI, the data here is from patent US20240382612A1.
